Assign pEC50 to each entry below.
# Study System: Human PPARδ LBD (Homo sapiens)
# Construct: (PPARδ amino acid 128 to C-terminus); expressed in transfected cells; host or cells: CV-1 cells
# Sequence (Q03181 128-441 limits assumed): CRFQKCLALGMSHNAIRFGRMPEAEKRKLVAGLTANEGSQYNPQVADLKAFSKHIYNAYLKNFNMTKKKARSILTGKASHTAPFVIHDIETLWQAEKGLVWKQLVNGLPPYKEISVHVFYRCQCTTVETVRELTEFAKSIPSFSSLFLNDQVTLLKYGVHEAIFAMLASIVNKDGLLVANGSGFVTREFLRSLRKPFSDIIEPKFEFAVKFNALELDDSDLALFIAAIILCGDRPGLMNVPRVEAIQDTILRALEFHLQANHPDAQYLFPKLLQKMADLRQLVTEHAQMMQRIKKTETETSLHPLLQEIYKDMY
# Method Notes: PPARδ activity screen (GAL4-PPARδ LBD luciferase transactivation in CV-1 cells)
# Assay type: cell-based
# Settings: Table 1; CV-1 cells, GAL4-PPARδ LBD luciferase reporter, compound 24 h; read-out: EC50
Would you please state pEC50, meaning minus log10 of the concentration in mol/L, as a bare number?

**Query** Fill blank: measured pEC50 of the molecule O=C(O)CCCCCOc1ccccc1CN(C(=O)c1ccc(-c2ccncc2)cc1)C1CCCC1 [compound 67] is ____.
**Result** 5.83

**Query** Fill blank: measured pEC50 of the molecule CC(C)N(Cc1ccccc1OCCCCCC(=O)O)C(=O)c1ccc(-c2ccco2)cc1 [compound 61] is ____.
**Result** 8.05

**Query** Fill blank: measured pEC50 of the molecule CC(C)N(Cc1ccccc1OCCCCCC(=O)O)C(=O)c1ccc(-c2ccsc2)cc1 [compound 64] is ____.
**Result** 7.76
